- assay_method_text: Pharmacokinetics after oral gavage
- Assay type: in vivo, rat
- assay_context: Sprague-Dawley, rat, plasma, po, 10 mg/kg, 10 mg/kg oral gavage, Rat 3
property_name: Cmax (ng/mL)
Please give a number only; it is taken to be in ng/mL.

Please fill in: Cmax reported for COc1ccccc1CN(C(=O)CC(C)C)[C@@H](C(=O)NC[C@H]1CCCO1)c1ccc(C)cc1 [Compound 8 (R,R)] = 3.3

----------
- assay_method_text: Pharmacokinetics after oral gavage
- Type: in vivo, rat
- assay_context: Sprague-Dawley, rat, plasma, po, 10 mg/kg, oral administration, 240 min, Rat1; read-out: plasma level
property_name: concentration at 240 min (ng/mL)
// return numeric value only (unit: ng/mL, not printed)

What the record says about COc1ccccc1CN(C(=O)CC(C)C)[C@@H](C(=O)NC[C@H]1CCCO1)c1ccc(C)cc1 [Compound 8 (R,R)] : concentration at 240 min is 1.1
